Target: β2 (Cavia porcellus)
Construct: a portion of tracheal approximately 4 cm long was removed; from tissue; host or cells: isolated trachea of reserpine-pretreated guinea pigs
Sequence (Q8K4Z4 whole entry): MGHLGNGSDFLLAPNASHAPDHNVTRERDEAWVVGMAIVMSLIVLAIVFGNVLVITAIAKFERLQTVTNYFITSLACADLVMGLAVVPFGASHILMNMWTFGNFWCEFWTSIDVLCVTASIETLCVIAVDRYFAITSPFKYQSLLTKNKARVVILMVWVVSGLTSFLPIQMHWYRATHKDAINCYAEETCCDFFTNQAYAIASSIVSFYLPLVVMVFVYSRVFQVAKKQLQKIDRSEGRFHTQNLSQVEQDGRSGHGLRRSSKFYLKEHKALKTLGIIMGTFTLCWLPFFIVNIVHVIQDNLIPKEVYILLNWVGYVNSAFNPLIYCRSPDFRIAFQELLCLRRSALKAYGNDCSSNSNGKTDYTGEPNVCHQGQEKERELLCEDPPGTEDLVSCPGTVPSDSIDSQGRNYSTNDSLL
Assay: Guinea pig's isolated tracheal, L-isoproterenol relaxation of carbachol contraction (pA2)
Details: vs L-isoproterenol, carbachol 10^−6 M contraction
measured.endpoint: β2 Value of pA2 Tracheal
Note: the reply should be a number with no unit written.

## Input Read the entry CCOC(=O)C1=C(C)NC(C)=C(C(=O)OCC)C1c1cc(Cl)ccc1OCC(O)CNC(C)(C)C (stereo not shown) and write its reported β2 Value of pA2 Tracheal.
## Output 7.27

## Input Read the entry COC(=O)C1=C(C)NC(C)=C(C(=O)OC)C1c1ccc(OCC(O)CNCCOc2ccccc2OC)c(OC)c1 (stereo not shown) and write its reported β2 Value of pA2 Tracheal.
## Output 7.20

## Input Read the entry CCOC(=O)C1=C(C)NC(C)=C(C(=O)OCC)C1c1ccc(OCC(O)CNCCOc2ccccc2OC)c(OC)c1 (stereo not shown) and write its reported β2 Value of pA2 Tracheal.
## Output 7.31

## Input Read the entry COC(=O)C1=C(C)NC(C)=C(C(=O)OC)C1c1ccc(OCC(O)CNC(C)(C)C)c(OC)c1 (stereo not shown) and write its reported β2 Value of pA2 Tracheal.
## Output 7.09

* * *

Biological target: β-adrenoreceptor (β1) (Rattus norvegicus, UniProt P18090)
Construct: The right and left atria were then separated; from tissue; host or cells: isolated rat right atrium (spontaneously beating) and left atrium (electrically paced)
Sequence (P18090 whole entry): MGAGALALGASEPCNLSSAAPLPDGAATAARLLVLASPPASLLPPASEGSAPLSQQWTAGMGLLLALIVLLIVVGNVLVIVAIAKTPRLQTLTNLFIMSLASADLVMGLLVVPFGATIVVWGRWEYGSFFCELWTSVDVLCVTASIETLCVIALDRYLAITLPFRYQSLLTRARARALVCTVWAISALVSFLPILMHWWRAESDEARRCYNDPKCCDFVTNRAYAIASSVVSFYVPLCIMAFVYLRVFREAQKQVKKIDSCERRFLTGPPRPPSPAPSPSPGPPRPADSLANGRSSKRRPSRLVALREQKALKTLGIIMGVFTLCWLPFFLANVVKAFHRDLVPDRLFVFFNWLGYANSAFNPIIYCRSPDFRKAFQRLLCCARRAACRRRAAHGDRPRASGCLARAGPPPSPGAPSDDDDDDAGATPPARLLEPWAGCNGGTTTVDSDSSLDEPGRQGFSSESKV
Experiment: Isolated left atrium, L-isoproterenol-induced contractility increase (pA2)
Design: species or system Wistar rat
Conditions: vs L-isoproterenol, electrically stimulated
measured.endpoint: β1 Value of pA2 Left Atrium
Note: the reply should be a number with no unit written.

## Input Read the entry CCCCNCC(O)COc1ccc(Cl)cc1C1C(C(=O)OCC)=C(C)NC(C)=C1C(=O)OCC (stereo not shown) and write its reported β1 Value of pA2 Left Atrium.
## Output 6.91

## Input Read the entry CCOC(=O)C1=C(C)NC(C)=C(C(=O)OCC)C1c1ccc(OCC(O)CNCCOc2ccccc2OC)c(OC)c1 (stereo not shown) and write its reported β1 Value of pA2 Left Atrium.
## Output 6.97

## Input Read the entry CCOC(=O)C1=C(C)NC(C)=C(C(=O)OCC)C1c1cc([N+](=O)[O-])ccc1OCC(O)CNC(C)(C)C (stereo not shown) and write its reported β1 Value of pA2 Left Atrium.
## Output 7.03

## Input Read the entry CCOC(=O)C1=C(C)NC(C)=C(C(=O)OCC)C1c1ccc(OCC(O)CNCCOc2ccccc2OC)c(Cl)c1 (stereo not shown) and write its reported β1 Value of pA2 Left Atrium.
## Output 6.97

* * *

Please respond with reported β2 Value of pA2 Tracheal for every item in the list.
Target: β2 (Cavia porcellus)
Construct: a portion of tracheal approximately 4 cm long was removed; from tissue; host or cells: isolated trachea of reserpine-pretreated guinea pigs
Experiment: Guinea pig's isolated tracheal, L-isoproterenol relaxation of carbachol contraction (pA2)
Conditions: vs L-isoproterenol, carbachol 10^−6 M contraction
Note: the reply should be a number with no unit written.

## Input Read the entry CCOC(=O)C1=C(C)NC(C)=C(C(=O)OCC)C1c1cc(Cl)ccc1OCC(O)CNCCOc1ccccc1OC (centres unmarked) and write its reported β2 Value of pA2 Tracheal.
## Output 7.31

## Input Read the entry CCOC(=O)C1=C(C)NC(C)=C(C(=O)OCC)C1c1cc([N+](=O)[O-])ccc1OCC(O)CNCCOc1ccccc1OC (centres unmarked) and write its reported β2 Value of pA2 Tracheal.
## Output 7.33

## Input Read the entry CCOC(=O)C1=C(C)NC(C)=C(C(=O)OCC)C1c1cc([N+](=O)[O-])ccc1OCC(O)CNC(C)(C)C (centres unmarked) and write its reported β2 Value of pA2 Tracheal.
## Output 7.27

## Input Read the entry CCCCNCC(O)COc1ccc(Cl)cc1C1C(C(=O)OCC)=C(C)NC(C)=C1C(=O)OCC (centres unmarked) and write its reported β2 Value of pA2 Tracheal.
## Output 7.24

## Input Read the entry CCOC(=O)C1=C(C)NC(C)=C(C(=O)OCC)C1c1ccc(OCC(O)CNCCOc2ccccc2OC)c(Cl)c1 (centres unmarked) and write its reported β2 Value of pA2 Tracheal.
## Output 7.28

* * *

Target: β-adrenoreceptor (β1) (Rattus norvegicus, UniProt P18090)
Construct: The right and left atria were then separated; from tissue; host or cells: isolated rat right atrium (spontaneously beating) and left atrium (electrically paced)
Test: Isolated right atrium, L-isoproterenol-induced heart rate increase (pA2)
Set-up: species or system Wistar rat
Conditions: slope of Schild regression
measured.endpoint: β1 Right Atrium (Slope)

CCOC(=O)C1=C(C)NC(C)=C(C(=O)OCC)C1c1cc([N+](=O)[O-])ccc1OCC(O)CNCCOc1ccccc1OC (stereo not drawn) : (0.88 ± 0.09)
COC(=O)C1=C(C)NC(C)=C(C(=O)OC)C1c1ccc(OCC(O)CNCCOc2ccccc2OC)c(OC)c1 (stereo not drawn) : (0.88 ± 0.09)

* * *

Please respond with reported β1 Value of pA2 Right Atrium for every item in the list.
Molecular target: β-adrenoreceptor (β1) (Rattus norvegicus)
Construct: The right and left atria were then separated; from tissue; host or cells: isolated rat right atrium (spontaneously beating) and left atrium (electrically paced)
Assay: Isolated right atrium, L-isoproterenol-induced heart rate increase (pA2)
Set-up: species or system Wistar rat
Conditions: vs L-isoproterenol, Schild plot
Note: the reply should be a number with no unit written.

## Input Read the entry CCOC(=O)C1=C(C)NC(C)=C(C(=O)OCC)C1c1cc([N+](=O)[O-])ccc1OCC(O)CNCCOc1ccccc1OC (stereo not drawn) [Compound 9] and write its reported β1 Value of pA2 Right Atrium.
## Output 7.78

## Input Read the entry CCOC(=O)C1=C(C)NC(C)=C(C(=O)OCC)C1c1cc(Cl)ccc1OCC(O)CNC(C)(C)C (stereo not drawn) [Compound 4] and write its reported β1 Value of pA2 Right Atrium.
## Output 7.38

## Input Read the entry COC(=O)C1=C(C)NC(C)=C(C(=O)OC)C1c1ccc(OCC(O)CNCCOc2ccccc2OC)c(OC)c1 (stereo not drawn) [Compound 2] and write its reported β1 Value of pA2 Right Atrium.
## Output 7.36

## Input Read the entry CCOC(=O)C1=C(C)NC(C)=C(C(=O)OCC)C1c1ccc(OCC(O)CNCCOc2ccccc2OC)c(OC)c1 (stereo not drawn) [Compound 3] and write its reported β1 Value of pA2 Right Atrium.
## Output 7.47

## Input Read the entry CCOC(=O)C1=C(C)NC(C)=C(C(=O)OCC)C1c1cc(Cl)ccc1OCC(O)CNCCOc1ccccc1OC (stereo not drawn) [Compound 6] and write its reported β1 Value of pA2 Right Atrium.
## Output 7.41

## Input Read the entry CCCCNCC(O)COc1ccc(Cl)cc1C1C(C(=O)OCC)=C(C)NC(C)=C1C(=O)OCC (stereo not drawn) [Compound 5] and write its reported β1 Value of pA2 Right Atrium.
## Output 7.37

## Input Read the entry CCOC(=O)C1=C(C)NC(C)=C(C(=O)OCC)C1c1cc([N+](=O)[O-])ccc1OCC(O)CNC(C)(C)C (stereo not drawn) [Compound 8] and write its reported β1 Value of pA2 Right Atrium.
## Output 7.89

## Input Read the entry CCOC(=O)C1=C(C)NC(C)=C(C(=O)OCC)C1c1ccc(OCC(O)CNCCOc2ccccc2OC)c(Cl)c1 (stereo not drawn) [Compound 7] and write its reported β1 Value of pA2 Right Atrium.
## Output 7.77

## Input Read the entry COC(=O)C1=C(C)NC(C)=C(C(=O)OC)C1c1ccc(OCC(O)CNC(C)(C)C)c(OC)c1 (stereo not drawn) [Compound 1] and write its reported β1 Value of pA2 Right Atrium.
## Output 7.21

* * *

Target: β-adrenoreceptor (β1) (Rattus norvegicus)
Construct: The right and left atria were then separated; from tissue; host or cells: isolated rat right atrium (spontaneously beating) and left atrium (electrically paced)
Assay: Isolated right atrium, L-isoproterenol-induced heart rate increase (pA2)
Set-up: species or system Wistar rat
Conditions: from pA2 difference right atrium vs tracheal
Please respond with reported β1/β2 for every item in the list.
Note: the reply should be a number with no unit written.

## Input Read the entry COC(=O)C1=C(C)NC(C)=C(C(=O)OC)C1c1ccc(OCC(O)CNC(C)(C)C)c(OC)c1 (stereo not drawn) [Compound 1] and write its reported β1/β2.
## Output 1.32

## Input Read the entry COC(=O)C1=C(C)NC(C)=C(C(=O)OC)C1c1ccc(OCC(O)CNCCOc2ccccc2OC)c(OC)c1 (stereo not drawn) [Compound 2] and write its reported β1/β2.
## Output 1.28

## Input Read the entry CCOC(=O)C1=C(C)NC(C)=C(C(=O)OCC)C1c1cc([N+](=O)[O-])ccc1OCC(O)CNC(C)(C)C (stereo not drawn) [Compound 8] and write its reported β1/β2.
## Output 1.29

## Input Read the entry CCCCNCC(O)COc1ccc(Cl)cc1C1C(C(=O)OCC)=C(C)NC(C)=C1C(=O)OCC (stereo not drawn) [Compound 5] and write its reported β1/β2.
## Output 1.33

## Input Read the entry CCOC(=O)C1=C(C)NC(C)=C(C(=O)OCC)C1c1ccc(OCC(O)CNCCOc2ccccc2OC)c(Cl)c1 (stereo not drawn) [Compound 7] and write its reported β1/β2.
## Output 1.34

## Input Read the entry CCOC(=O)C1=C(C)NC(C)=C(C(=O)OCC)C1c1cc(Cl)ccc1OCC(O)CNC(C)(C)C (stereo not drawn) [Compound 4] and write its reported β1/β2.
## Output 1.31

## Input Read the entry CCOC(=O)C1=C(C)NC(C)=C(C(=O)OCC)C1c1cc(Cl)ccc1OCC(O)CNCCOc1ccccc1OC (stereo not drawn) [Compound 6] and write its reported β1/β2.
## Output 1.29

## Input Read the entry CCOC(=O)C1=C(C)NC(C)=C(C(=O)OCC)C1c1cc([N+](=O)[O-])ccc1OCC(O)CNCCOc1ccccc1OC (stereo not drawn) [Compound 9] and write its reported β1/β2.
## Output 1.30

## Input Read the entry CCOC(=O)C1=C(C)NC(C)=C(C(=O)OCC)C1c1ccc(OCC(O)CNCCOc2ccccc2OC)c(OC)c1 (stereo not drawn) [Compound 3] and write its reported β1/β2.
## Output 1.26

Recorded values, source patent US20050009886A1.
